- Condition Parameters: 313.15 K; 102 kPa; Liquid; Frequency=3 MHz; Single path-length method
Reported speed of sound values follow for various molecules
Could you give me the number in m/s? Just the number is fine.

Sample answers from the record:
- CCCCCCCCCCC1CCCCC1: 1333
- CCCCCCCCC1CCCCC1: 1312.1
- CCCC1CCCCC1: 1225.6
- CCCCCCCCCCCCC1CCCCC1: 1350.4

Documented speed of sound of CCCCCCC1CCCCC1 : 1284.2

Documented speed of sound of CCCCCCCC1CCCCC1 : 1298.7

Documented speed of sound of CCCCCCCCCC1CCCCC1 : 1322.9

Documented speed of sound of CCCCCC1CCCCC1 : 1267.8

====

Reported viscosity values follow for various compounds
- Condition Parameters: 303.15 K; 102 kPa; Liquid; Concentric cylinders viscometry
Numbers after ± are expanded uncertainties.

- CCCCCCCCCC1CCCCC1: 3.39 ± 0.03 mPa·s
- CCCCCCCC1CCCCC1: 2.26 ± 0.02 mPa·s
- CCCCCCCCCCCCC1CCCCC1: 5.81 ± 0.03 mPa·s
- CCCCCC1CCCCC1: 1.42 ± 0.01 mPa·s
- CCCCCCC1CCCCC1: 1.81 ± 0.02 mPa·s

Here is the next item to consider.
Documented viscosity of CCCC1CCCCC1 : 0.86 ± 0.012 mPa·s

====

Reported viscosity values follow for various molecules
- Condition Parameters: 303.15 K; 102 kPa; Liquid; Concentric cylinders viscometry
Could you give me the number in mPa·s? Just the number is fine.

Sample answers from the record:
- CCCCCCCCC1CCCCC1: 2.79
- CCCCCCCCCCC1CCCCC1: 4.09

Here is the next item to consider.
Documented viscosity of CCCCCCCCCCCCCCCC : 2.76

====

Reported viscosity values follow for various molecules
- Condition Parameters: 353.15 K; 102 kPa; Liquid; Concentric cylinders viscometry
Could you give me the number in mPa·s? Just the number is fine.

Sample answers from the record:
• CCCCCCCCC1CCCCC1 [octylcyclohexane] = 1.16
• CCCCCCCCCCCCCCCC [hexadecane] = 1.15
• CCCCCCCCCCCCC1CCCCC1 [dodecylcyclohexane] = 2.01
• CCCCCCCC1CCCCC1 [heptylcyclohexane] = 0.993
• CCCC1CCCCC1 [1-cyclohexylpropane] = 0.477

Here is the next item to consider.
Documented viscosity of CCCCCC1CCCCC1 [pentylcyclohexane] : 0.709

====

- Condition Parameters: 363.15 K; 102 kPa; Liquid; Concentric cylinders viscometry
// Condition not met strictly below 0.9 mPa·s in viscosity; Condition met otherwise

Identify whether the reported viscosity of the following compound is 0.9 mPa·s or greater: CCCCCCCCC1CCCCC1
Condition met

Identify whether the reported viscosity of the following compound is 0.9 mPa·s or greater: CCCCCCCCCCCCCCCC
Condition met

Identify whether the reported viscosity of the following compound is 0.9 mPa·s or greater: CCCCCC1CCCCC1
Condition not met

Identify whether the reported viscosity of the following compound is 0.9 mPa·s or greater: CCCCCCCCCC1CCCCC1
Condition met

Identify whether the reported viscosity of the following compound is 0.9 mPa·s or greater: CCCCCCC1CCCCC1
Condition not met

Identify whether the reported viscosity of the following compound is 0.9 mPa·s or greater: CCCCCCCCCCC1CCCCC1
Condition met

Identify whether the reported viscosity of the following compound is 0.9 mPa·s or greater: CCCC1CCCCC1
Condition not met

Identify whether the reported viscosity of the following compound is 0.9 mPa·s or greater: CCCCCCCCCCCCC1CCCCC1
Condition met

====

Reported mass density values follow for various compounds
- Condition Parameters: 353.15 K; 102 kPa; Liquid; Vibrating tube method
Could you give me the number in kg/m3? Just the number is fine.

- CCCCCCCCCCC1CCCCC1: 778
- CCCCCCCCCC1CCCCC1: 775.4

Documented mass density of CCCCCCCCC1CCCCC1 : 772.5

====

Reported mass density values follow for various molecules
- Condition Parameters: 293.15 K; 102 kPa; Liquid; Vibrating tube method
Numbers after ± are expanded uncertainties.

Sample answers from the record:
• CCCC1CCCCC1 [1-cyclohexylpropane] = 793.54 ± 0.81 kg/m3
• CCCCCCCCC1CCCCC1 [octylcyclohexane] = 814.14 ± 0.81 kg/m3
• CCCCCCCCCCCCCCCC [hexadecane] = 773.37 ± 0.81 kg/m3
• CCCCCCCCCCC1CCCCC1 [decylcyclohexane] = 818.55 ± 0.81 kg/m3
• CCCCCC1CCCCC1 [pentylcyclohexane] = 804.11 ± 0.82 kg/m3

Documented mass density of CCCCCCCC1CCCCC1 [heptylcyclohexane] : 810.99 ± 0.81 kg/m3

Documented mass density of CCCCCCCCCCCCC1CCCCC1 [dodecylcyclohexane] : 822.31 ± 0.81 kg/m3

Documented mass density of CCCCCCCCCC1CCCCC1 [nonylcyclohexane] : 816.41 ± 0.87 kg/m3

Documented mass density of CCCCCCC1CCCCC1 [hexylcyclohexane] : 807.71 ± 0.84 kg/m3

====

- Condition Parameters: 313.15 K; 102 kPa; Liquid; Vibrating tube method
Reported Endpoint: mass density (kg/m3)
Could you give me the number in kg/m3? Just the number is fine.

Sample answers from the record:
- CCCC1CCCCC1 [1-cyclohexylpropane]: 777.9
- CCCCCCCCCCC1CCCCC1 [decylcyclohexane]: 805.02
- CCCCCCCC1CCCCC1 [heptylcyclohexane]: 796.93

Documented mass density of CCCCCC1CCCCC1 [pentylcyclohexane] : 789.47

Documented mass density of CCCCCCCCCCCCCCCC [hexadecane] : 759.51

Documented mass density of CCCCCCCCC1CCCCC1 [octylcyclohexane] : 800.29

Documented mass density of CCCCCCCCCC1CCCCC1 [nonylcyclohexane] : 802.74

Documented mass density of CCCCCCC1CCCCC1 [hexylcyclohexane] : 793.4

Documented mass density of CCCCCCCCCCCCC1CCCCC1 [dodecylcyclohexane] : 809.01

====

- Condition Parameters: 333.15 K; 102 kPa; Liquid; Vibrating tube method
Reported Endpoint: mass density (kg/m3)
Could you give me the number in kg/m3? Just the number is fine.

Sample answers from the record:
• CCCCCCCCCCC1CCCCC1 = 791.5
• CCCCCC1CCCCC1 = 774.74
• CCCCCCCCCC1CCCCC1 = 789.05
• CCCCCCCCC1CCCCC1 = 786.42

Documented mass density of CCCCCCCCCCCCC1CCCCC1 : 795.74

Documented mass density of CCCCCCC1CCCCC1 : 779.02

====

- Condition Parameters: 323.15 K; 102 kPa; Liquid; Vibrating tube method
Reported Endpoint: mass density (kg/m3)
Could you give me the number in kg/m3? Just the number is fine.

Sample answers from the record:
• CCCCCC1CCCCC1 = 782.12
• CCCCCCCC1CCCCC1 = 789.89

Here is the next item to consider.
Documented mass density of CCCCCCCCCCCCCCCC : 752.61

====

- Condition Parameters: 303.15 K; 102 kPa; Liquid; Frequency=3 MHz; Single path-length method
Reported speed of sound values follow for various compounds
Could you give me the number in m/s? Just the number is fine.

Sample answers from the record:
- CCCCCCC1CCCCC1: 1322.1
- CCCCCCCCCCCCC1CCCCC1: 1386.3
- CCCCCCCCCC1CCCCC1: 1359.6
- CCCC1CCCCC1: 1266.2
- CCCCCC1CCCCC1: 1306.4

Documented speed of sound of CCCCCCCCC1CCCCC1 : 1349.1

Documented speed of sound of CCCCCCCC1CCCCC1 : 1336.1

Documented speed of sound of CCCCCCCCCCC1CCCCC1 : 1369.4

====

- Condition Parameters: 363.15 K; 102 kPa; Liquid; Vibrating tube method
Reported Endpoint: mass density (kg/m3)
Could you give me the number in kg/m3? Just the number is fine.

* CCCCCCCCCCCCCCCC | 724.9

Documented mass density of CCCCCC1CCCCC1 : 752.4

====

Reported mass density values follow for various compounds
- Condition Parameters: 323.15 K; 102 kPa; Liquid; Vibrating tube method
Could you give me the number in kg/m3? Just the number is fine.

Sample answers from the record:
- CCCCCCCCCCC1CCCCC1 [decylcyclohexane]: 798.27
- CCCCCCC1CCCCC1 [hexylcyclohexane]: 786.22
- CCCCCCCCCC1CCCCC1 [nonylcyclohexane]: 795.8

Documented mass density of CCCC1CCCCC1 [1-cyclohexylpropane] : 770.04

Documented mass density of CCCCCCCCCCCCC1CCCCC1 [dodecylcyclohexane] : 802.37

Documented mass density of CCCCCCCCC1CCCCC1 [octylcyclohexane] : 793.36
